- Test system: K-562 leukemia
- ASSAY REMARKS: NCI tumour cell line growth inhibition, 48 h
PROPERTY LABEL: TGI

Completed entries (count: 3):
O=c1c2c3c(sc2nc2n1N=C(c1ccc(Cl)cc1)CS2)CCCC3 ... > 100 µM
CCOC(=O)c1nc2ccccc2nc1Oc1ccc(C(=O)OC)cc1 ... > 100 µM
Oc1ccc(-c2nc3ccc4[nH]ncc4c3c3c2CCCC3)c(F)c1 ... 21 µM

Parameter requested: TGI. Apply to each item below.
1. CC12CC3OC(=O)C1COC14OC5(C2C1=O)C(O)(CCC1C4CC2OC24CC=CC(=O)C14C)C(=O)OC35C (centres undefined)
2. Nc1c(O)cc(N=C2C(=O)C=CC=C2C(=O)O)c(O)c1C(=O)O

*A*
["> 100 µM", "> 100 µM"]

Parameter requested: TGI. Apply to each item below.
1. O=C(CCCCCC(=O)N1CC(CCl)c2ccc([N+](=O)[O-])cc21)N1CC(CCl)c2ccc([N+](=O)[O-])cc21 (centres undefined)
2. CN(C)c1ccc(C=C2C(=O)N(c3ccccc3)N(c3ccccc3)C2=O)cc1

*A*
["> 100 µM", "> 100 µM"]

Parameter requested: TGI. Apply to each item below.
1. COC(=O)[C@H]1NC(=O)CCSSC1(C)C
2. Nc1nc(N)c(C=Nc2ccc(Br)cc2)c(Nc2ccc(Br)cc2)n1
3. Cn1nc(-c2ccc(Cl)cc2)nc2c(=O)n(C)c(=O)nc1-2
4. O=[N+]([O-])c1ccc(C2CC(c3ccccc3Cl)=Nc3ccccc3S2=O)cc1 (centres undefined)
5. CC1(C)C(CCO)CC1n1cc(I)c(=O)[nH]c1=O (centres undefined)
6. Cc1nc2c(o1)C(=Nc1ccccc1)c1ccccc1C2=O

*A*
> 100 µM
8.68 µM
3.22 µM
4.57 µM
> 100 µM
> 100 µM

*Q* Request body: readout TGI, system K-562 leukemia, query CNC(=S)N/N=C(\C(=N/NC(=S)NC)c1ccccn1)c1ccccn1 . Return the value.
*A* > 100 µM

###

- System: IGROV1 ovarian
- ASSAY REMARKS: NCI tumour cell line growth inhibition, 48 h; in the data active = GI50 below about 0.43 µM; inactive = the rest
Choose one outcome from this list and give only that: true = active, false = inactive

Examples with answers:
COc1ccccc1C1=C(Nc2ccccc2)C(=O)NC1=O ... false
O=C(O)c1cn(C2CC2)c2cc(N3CCN(C(=O)Nc4nc(-c5ccccc5)cs4)CC3)c(F)cc2c1=O ... false
CC(C)N1CCN(Cc2ccc3c(NNC(=O)c4ccccc4)nc4cc(F)ccc4n23)CC1 ... true

Consider the record given below.
*Q* Just curious, what result did Cn1nc(-c2ccc(Cl)cc2)nc2c(=O)n(C)c(=O)nc1-2 get here?
*A* false

###

- Tested on: TK-10 renal
- ASSAY REMARKS: NCI tumour cell line growth inhibition, 48 h
I'd be grateful if you could share measured TGI for these entries.

C(=N\Nc1ccc(-c2nc3ccccc3[nH]2)cc1)/c1c(-c2ccc(Cc3ccccc3)cc2)[nH]c2ccccc12 ... > 95.4 µM
O=c1sc2c(s1)-c1sc(=O)sc1SS2 ... > 79.4 µM
CCN(CC)C(=S)Nc1ccc(-c2cc3ccc(O)cc3oc2=O)cc1 ... > 100 µM
CC1(C)O[C@@H](CCl)C[C@H](C#N)O1 ... > 100 µM
C#CC[N+](C)(CC#C)CC#C ... > 100 µM

Parameter requested: TGI. Apply to each item below.
1. COc1ccc2c(c1)C/C(=C\c1cccc3ccccc13)C2=O
2. COC(=O)CCc1ccc2c(c1)C(=O)CC2
3. O=C(O)C[C@@H]1[C@@H](O)[C@@H](O)CN2C(=O)c3ccccc3[C@H]12

*A*
["> 100 µM", "> 100 µM", "> 100 µM"]

###

- Tested on: LXFL 529 NSCLC
- ASSAY REMARKS: NCI tumour cell line growth inhibition, 48 h
PROPERTY LABEL: TGI

Completed entries (count: 4):
O=C1C2=C(c3ccccc31)C(c1ccccc1)N1C(=O)CSC1=N2 (stereo not given) ... > 100 µM
CCCCCCCCCCCCCCCCNCCCN(C)CCCN ... 33.2 µM
O=[N+]([O-])c1ccccc1S(=O)(=O)c1ccccc1 ... > 100 µM
NC(=O)c1ccccc1NC(=O)C(=O)Cc1nc2ccccc2[nH]c1=O ... > 100 µM

The record that follows has no TGI shown yet.
*Q* Please give the measured TGI for this compound: COC(=O)C1=C(c2ccc(OC)c(OC)c2)OC(c2cc(OC)c(OC)c(OC)c2)C1 (stereo not given)
*A* > 100 µM

###

- Test system: OVCAR-4 ovarian
- ASSAY REMARKS: NCI tumour cell line growth inhibition, 48 h; in the data active = GI50 below about 0.43 µM; inactive = the rest
Choose one outcome from this list and give only that: active, inactive

Cc1ccc(-c2c3c(nn2-c2ccc(S(N)(=O)=O)cc2)-c2ccccc2C3)cc1 ... inactive
C=C1C(=O)O[C@H]2[C@H]1CC/C(COC(=O)CCSCCC(=O)OC/C1=C/CC[C@@]3(C)O[C@H]3[C@H]3OC(=O)C(=C)[C@@H]3CC1)=C\CC[C@@]1(C)O[C@@H]21 ... inactive
FC(F)(F)c1ccc(-c2cnc(-n3cc(COCCN4CCCCC4)nn3)nc2NC2CCCCCC2)cc1 ... inactive
CC(C)N1CCN(Cc2ccc3c(NNC(=O)c4ccccc4)nc4cc(F)ccc4n23)CC1 ... active
O=[N+]([O-])c1ccc(Oc2nc(Nc3ccc(O[C@H]4CO[C@H]5[C@@H]4OC[C@@H]5O)c(Cl)c3)ncc2F)c(Cl)c1 ... inactive
O=C(O)c1cn(C2CC2)c2cc(N3CCN(C(=O)Nc4nc(-c5ccccc5)cs4)CC3)c(F)cc2c1=O ... inactive

*Q* Just curious, what result did COc1cccc(-c2nn(-c3ccccc3)cc2-c2ccnc(NCCNC(=O)Nc3cccc(C(F)(F)F)c3)c2)c1 get here?
*A* inactive

###

- Tested on: UACC-257 melanoma
- ASSAY REMARKS: NCI tumour cell line growth inhibition, 48 h
PROPERTY LABEL: TGI

O=C1Nc2ccccc2Cn2c1cc1oc(-c3ccccc3)cc12 ... > 100 µM
Cc1c(-c2ccccc2)nn2cc(-c3ccccc3)nnc12 ... > 100 µM
COc1cccc(CSCC(=O)O)c1 ... > 100 µM

Parameter requested: TGI. Apply to each item below.
1. Cc1cc(Nc2nc(-c3cccnc3)nc3ccccc23)n[nH]1
2. CC(=O)c1c(CN(C)c2ccccc2)n([O-])c2ccccc2[n+]1=O
3. Cc1ccc(NC(=O)C(Cc2c[nH]c3ccccc23)NC(=O)Oc2ccccc2)cc1C (centres undefined)
4. CCOC(=O)c1nc2ccccc2nc1Oc1ccc(C(=O)OC)cc1
5. O=C(c1ccccc1)n1cc(-c2ccccc2)c2c(=O)[nH]cnc21

*A*
1: > 100 µM; 2: > 100 µM; 3: > 100 µM; 4: > 100 µM; 5: > 100 µM

Parameter requested: TGI. Apply to each item below.
1. CCCCCCNC(=O)CCC(NC(=O)c1ccc(N(C)Cc2cnc3nc(N)nc(N)c3n2)cc1)C(=O)NCCCCCC (centres undefined)
2. COc1cc2oc(=O)cc(C)c2cc1O
3. CCCC(O)c1cn(C(NC(=O)c2ccccc2)P(=O)(OCC)OCC)nn1 (centres undefined)

*A*
1: > 100 µM; 2: > 100 µM; 3: > 100 µM

Parameter requested: TGI. Apply to each item below.
1. O=C(O)C1CCCCC1c1c2ccc(=O)c(O)c-2oc2c(O)c(O)ccc12 (centres undefined)
2. O=C(CCC(=O)Nc1ccc(Cl)c(Cl)c1)CC(=O)c1ccc(F)cc1
3. S=c1nc(COc2ccc(Cl)cc2Cl)[nH][nH]1
4. O=C(CCCCCCCCC(=O)N1C(=O)CC(=O)N(c2ccccc2)C1=S)N1C(=O)CC(=O)N(c2ccccc2)C1=S
5. Cc1noc2c1C(=O)CCC2
6. COc1ccc(/C=C2\CCS(=O)(=O)c3ccccc3C2=O)cc1OC
7. COc1cc(O)c2c(=O)c3c(C)cccc3n(C)c2c1
8. CN(C)c1nnnn1-c1c(N)n(C)c(=O)n(C)c1=O

*A*
1. > 100 µM
2. > 100 µM
3. > 100 µM
4. > 100 µM
5. > 100 µM
6. > 100 µM
7. > 10 µM
8. > 100 µM

Parameter requested: TGI. Apply to each item below.
1. C[n+]1c(-c2ccc(/C=N/Nc3ccnc(N/N=C/c4ccc(-c5cn6ccsc6[n+]5C)cc4)n3)cc2)cn2ccsc21
2. COc1cccc(/C=N/NC(=S)NC2CC3CCC2C3)c1O (centres undefined)
3. COC(=O)C1=C(OC(=O)/C=C/c2ccccc2)C(C(=O)OC)[C@@]2(O)[C@@H](C(=O)OC)[C@H](C)C[C@@H]1[C@@H]2C(=O)OC (some centres undefined)
4. Cc1cc(-c2ccccc2)nc(Nc2nc3ccccc3o2)n1
5. COC(=O)[C@H]1NC(=O)CCSSC1(C)C
6. CCOC(=O)c1c(-c2ccc(Cl)cc2)c(C#N)c(=S)n(C2OC(COC(C)=O)C(OC(C)=O)C(OC(C)=O)C2OC(C)=O)c1-c1ccccc1 (centres undefined)
7. Nc1c(O)cc(N=C2C(=O)C=CC=C2C(=O)O)c(O)c1C(=O)O

*A*
1. 76.2 µM
2. 38.7 µM
3. 90.9 µM
4. > 100 µM
5. > 100 µM
6. > 100 µM
7. > 100 µM
